From: BindingDB's records for doi:10.1210/endo.135.6.7988476

Here's a batch of compounds along with measured pKi for Somatostatin receptor type 2 (Homo sapiens).
Bridge positions count the residues as written; N and C are the ends. Square brackets hold non-standard residues; d marks the D form. Peptide text beside a SMILES is read from it. Phe(4-Cl) = N[C@@H](Cc1ccc(Cl)cc1)C(=O)O
Answers are plain numbers, as −log10 of the molar value.

* C[C@@H](O)[C@H](NC(=O)[C@@H]1CSSC[C@H](NC(=O)[C@H](N)Cc2ccc3ccccc3c2)C(=O)N[C@@H](Cc2ccc(O)cc2)C(=O)N[C@H](Cc2c[nH]c3ccccc23)C(=O)N[C@@H](CCCCN)C(=O)N[C@@H]([C@@H](C)O)C(=O)N1)C(N)=O | 9.40
* C[C@@H](O)[C@H](NC(=O)[C@H](Cc1ccccc1)NC(=O)[C@@H](NC(=O)[C@H](CCCCN)NC(=O)[C@@H](Cc1c[nH]c2ccccc12)NC(=O)[C@H](Cc1ccc(O)cc1)NC(=O)[C@H](Cc1ccc(Cl)cc1)NC(=O)[C@H](N)Cc1ccccc1)[C@@H](C)O)C(N)=O [BIM 23068] (H-[dF][Phe(4-Cl)]Y[dW]KTFT-NH2) | 8.81

With those in mind, consider the next compound.
Input: Param readout= pKi; system= Somatostatin receptor type 2 (Homo sapiens); entry= CC(C)[C@@H]1NC(=O)[C@H](CCCCN)NC(=O)[C@@H](Cc2c[nH]c3ccccc23)NC(=O)[C@H](Cc2ccc(O)cc2)NC(=O)[C@@H](NC(=O)[C@H](N)Cc2ccccc2)CSSC[C@@H](C(=O)N[C@@H](Cc2c[nH]c3ccccc23)C(N)=O)NC1=O [CAS_71306] (H-[dF]CY[dW]KVCW-NH2; disulfide 2-7) ; returns value.
Output: 8.27

====

Bridge positions count the residues as written; N and C are the ends. Square brackets hold non-standard residues; d marks the D form. Peptide text beside a SMILES is read from it. 1Nal = N[CH](Cc1cccc2ccccc12)C(=O)O; Thr(ol) = C[CH](O)[CH](N)CO
Here's a batch of compounds along with measured Ki for Somatostatin receptor type 2 (Homo sapiens, UniProt P30874).
Numbers only, in nM.

• CC(C)C1NC(=O)C(CCCCN)NC(=O)C(Cc2c[nH]c3ccccc23)NC(=O)C(Cc2ccc(O)cc2)NC(=O)C(NC(=O)C(N)Cc2cccc3ccccc23)CSSCC(C(=O)NC(CO)C(C)O)NC1=O (configuration not stated) [DC23-60] (H-[1Nal]CYWKVC[Thr(ol)]; disulfide 2-7; configuration not given here) = 0.26

With those in mind, consider the next compound.
Input: Param item = CC(C)[C@H](NC(=O)[C@H](CCCCN)NC(=O)[C@@H](Cc1c[nH]c2ccccc12)NC(=O)[C@H](Cc1ccc(O)cc1)NC(=O)[C@H](Cc1ccccc1)NC(=O)[C@H](N)Cc1ccccc1)C(=O)N[C@@H](Cc1ccccc1)C(=O)N[C@H](C(N)=O)[C@@H](C)O [BIM-23058] (H-[dF]FY[dW]KVFT-NH2) ; retrieve measured Ki.
Output: 9.8

====

Here's a batch of compounds along with measured pKi for Somatostatin receptor type 1 (Homo sapiens, UniProt P30872).
Bridge positions count the residues as written; N and C are the ends. Square brackets hold non-standard residues; d marks the D form. Peptide text beside a SMILES is read from it. * marks the point of attachment. NH(1-naphthylmethyl) = c1ccc2c(CN*)cccc2c1; Phe(4-Cl) = N[C@@H](Cc1ccc(Cl)cc1)C(=O)O; Abu = CC[C@H](N)C(=O)O
One number for each entry, as −log10 of the molar value.

* CC[C@H](NC(=O)[C@@H](N)Cc1ccc(Cl)cc1)C(=O)N[C@@H](Cc1ccc(O)cc1)C(=O)N[C@H](Cc1c[nH]c2ccccc12)C(=O)N[C@@H](CCCCN)C(=O)N[C@H](C(=O)N[C@@H](C)C(=O)N[C@H](Cc1ccccc1)C(N)=O)C(C)C [BIM 23067] (H-[Phe(4-Cl)][Abu]Y[dW]KVA[dF]-NH2) | 6.00

With those in mind, consider the next compound.
Input: Param item = NCCCCC1NC(=O)C(Cc2c[nH]c3ccccc23)NC(=O)C(Cc2ccc(O)cc2)NC(=O)C(NC(=O)C(N)Cc2ccccc2)CSSCC(C(=O)NCc2cccc3ccccc23)NC(=O)C(CO)NC1=O (configuration not stated) [NC4-28B] (H-FCYWKSC-{NH(1-naphthylmethyl)}; disulfide 2-7; configuration not given here) ; retrieve measured pKi.
Output: 7.43

====

Bridge positions count the residues as written; N and C are the ends. Square brackets hold non-standard residues; d marks the D form. Peptide text beside a SMILES is read from it. * marks the point of attachment. NH(1-naphthylmethyl) = c1ccc2c(CN*)cccc2c1; 2Nal = N[C@@H](Cc1ccc2ccccc2c1)C(=O)O; 1Nal = N[CH](Cc1cccc2ccccc12)C(=O)O; Thr(ol) = C[CH](O)[CH](N)CO; Abu = CC[C@H](N)C(=O)O
Here's a batch of compounds along with measured pKi for Somatostatin receptor type 1 (Homo sapiens, UniProt P30872).
Give bare numbers, as −log10 of the molar value.

* CC(C)[C@H](NC(=O)[C@H](CCCCN)NC(=O)[C@@H](Cc1c[nH]c2ccccc12)NC(=O)[C@H](Cc1ccc(O)cc1)NC(=O)[C@H](Cc1ccccc1)NC(=O)[C@H](N)Cc1ccccc1)C(=O)N[C@@H](Cc1ccccc1)C(=O)N[C@H](C(N)=O)[C@@H](C)O [BIM-23058] (H-[dF]FY[dW]KVFT-NH2) | 6.94

Go through the items and report each one's pKi.
1. CC[C@@H]1NC(=O)[C@H](CCCCN)NC(=O)[C@@H](Cc2c[nH]c3ccccc23)NC(=O)[C@H](Cc2ccc(O)cc2)NC(=O)[C@@H](NC(=O)[C@H](N)Cc2ccccc2)CSSC[C@@H](C(=O)N[C@@H](Cc2ccc3ccccc3c2)C(N)=O)NC1=O [D-Phe-Cys-Tyr-D-Trp-Lys-Abu-Cys-Nal-NH] (H-[dF]CY[dW]K[Abu]C[2Nal]-NH2; disulfide 2-7)
2. CC(C)C1NC(=O)C(CCCCN)NC(=O)C(Cc2c[nH]c3ccccc23)NC(=O)C(Cc2ccc(O)cc2)NC(=O)C(NC(=O)C(N)Cc2cccc3ccccc23)CSSCC(C(=O)NC(CO)C(C)O)NC1=O (stereo not given) [DC23-60] (H-[1Nal]CYWKVC[Thr(ol)]; disulfide 2-7; configuration not given here)
3. CC(O)C1NC(=O)C(CCCCN)NC(=O)C(Cc2c[nH]c3ccccc23)NC(=O)C(Cc2ccc(O)cc2)NC(=O)C(NC(=O)C(N)Cc2ccccc2)CSSCC(C(=O)NCc2cccc3ccccc23)NC1=O (stereo not given) [BIM 23060] (H-FCYWKTC-{NH(1-naphthylmethyl)}; disulfide 2-7; configuration not given here)
4. CC(C)[C@@H]1NC(=O)[C@H](CCCCN)NC(=O)[C@@H](Cc2c[nH]c3ccccc23)NC(=O)[C@H](Cc2ccc(O)cc2)NC(=O)[C@@H](NC(=O)[C@H](N)Cc2ccccc2)CSSC[C@@H](C(=O)N[C@@H](Cc2c[nH]c3ccccc23)C(N)=O)NC1=O [CAS_71306] (H-[dF]CY[dW]KVCW-NH2; disulfide 2-7)

Output:
[6.00, 7.15, 7.21, 6.00]

====

Here's a batch of compounds along with measured pKi for Somatostatin receptor type 3 (Homo sapiens).
Bridge positions count the residues as written; N and C are the ends. Square brackets hold non-standard residues; d marks the D form. Peptide text beside a SMILES is read from it. * marks the point of attachment. NH(1-naphthylmethyl) = c1ccc2c(CN*)cccc2c1; d1Nal = N[C@H](Cc1cccc2ccccc12)C(=O)O; d2Nal = N[C@H](Cc1ccc2ccccc2c1)C(=O)O; 1Nal = N[CH](Cc1cccc2ccccc12)C(=O)O; Thr(ol) = C[CH](O)[CH](N)CO
Numbers only, as −log10 of the molar value.

* CC1NC(=O)C(CCCCN)NC(=O)C(Cc2c[nH]c3ccccc23)NC(=O)C(Cc2ccc(O)cc2)NC(=O)C(NC(=O)C(N)Cc2ccccc2)CSSCC(C(=O)NCc2cccc3ccccc23)NC1=O (configuration not stated) [BIM 23034] (H-FCYWKAC-{NH(1-naphthylmethyl)}; disulfide 2-7; configuration not given here) | 8.11
* CC(C)[C@H](NC(=O)[C@H](CCCCN)NC(=O)[C@@H](Cc1c[nH]c2ccccc12)NC(=O)[C@H](Cc1ccc(O)cc1)NC(=O)[C@H](Cc1ccccc1)NC(=O)[C@H](N)Cc1ccccc1)C(=O)N[C@@H](Cc1ccccc1)C(=O)N[C@H](C(N)=O)[C@@H](C)O [BIM-23058] (H-[dF]FY[dW]KVFT-NH2) | 8.85
* CC(O)C1NC(=O)C(CCCCN)NC(=O)C(Cc2c[nH]c3ccccc23)NC(=O)C(Cc2ccc(O)cc2)NC(=O)C(NC(=O)C(N)Cc2ccccc2)CSSCC(C(=O)NCc2cccc3ccccc23)NC1=O (configuration not stated) [BIM 23060] (H-FCYWKTC-{NH(1-naphthylmethyl)}; disulfide 2-7; configuration not given here) | 7.84
* CC(C)[C@H](NC(=O)[C@H](CCCCN)NC(=O)[C@@H](Cc1c[nH]c2ccccc12)NC(=O)[C@H](Cc1ccc(O)cc1)NC(=O)[C@H](C)NC(=O)[C@H](N)Cc1ccc2ccccc2c1)C(=O)N[C@@H](C)C(=O)N[C@H](C(N)=O)[C@@H](C)O [D-Nal-Ala-Tyr-D-Trp-Lys-Val-Ala-Thr-NH2] (H-[d2Nal]AY[dW]KVAT-NH2) | 7.88
* CC(C)C1NC(=O)C(CCCCN)NC(=O)C(Cc2c[nH]c3ccccc23)NC(=O)C(Cc2ccc(O)cc2)NC(=O)C(NC(=O)C(N)Cc2cccc3ccccc23)CSSCC(C(=O)NC(CO)C(C)O)NC1=O (configuration not stated) [DC23-60] (H-[1Nal]CYWKVC[Thr(ol)]; disulfide 2-7; configuration not given here) | 7.14

Go through the items and report each one's pKi.
1. CC(C)[C@H](NC(=O)[C@H](CCCCN)NC(=O)[C@@H](Cc1c[nH]c2ccccc12)NC(=O)[C@H](Cc1ccc(O)cc1)NC(=O)[C@H](Cc1ccccc1)NC(=O)[C@H](N)Cc1ccccc1)C(=O)N[C@@H](Cc1ccccc1)C(=O)N[C@H](Cc1cccc2ccccc12)C(N)=O [BIM 23056] (H-[dF]FY[dW]KVF[d1Nal]-NH2)
2. CC(C)[C@@H]1NC(=O)[C@H](CCCCN)NC(=O)[C@@H](Cc2c[nH]c3ccccc23)NC(=O)[C@H](Cc2ccc(O)cc2)NC(=O)[C@@H](NC(=O)[C@H](N)Cc2ccccc2)CSSC[C@@H](C(=O)N[C@@H](Cc2c[nH]c3ccccc23)C(N)=O)NC1=O [CAS_71306] (H-[dF]CY[dW]KVCW-NH2; disulfide 2-7)

Output:
[7.97, 7.51]
